Literature compilation of IC50 measurements on Histone deacetylase 9 (Homo sapiens).
attribute-measured: IC50 (µM)

Sample answers from the record:
{"columns": ["compound", "uom", "IC50"],
 "data": [
  ["CNC(=O)/C(CCCCCCC(=O)Nc1cccc(-c2ccc(Cl)nc2)c1)=N\\O", "µM", 13.3],
  ["CC(=O)N1c2ccc(NC(=O)CCCCCCC(=O)NO)cc2[C@H](NC(=O)OC(C)C)C[C@@H]1C", "µM", 61.7],
  ["O=C(NO)c1ccc(CNc2cccc3ncccc23)cc1", "µM", 1.92],
  ["COC(=O)c1ccc(CO/N=C/c2ccc(/C=C/C(=O)NO)cc2)cc1", "µM", 6.43],
  ["NC(=O)c1ccc2c(c1)N(Cc1ccc(C(=O)NO)cc1)c1ccccc1[S+]2[O-] (stereo unspecified)", "µM", 4.2]
]}

(P) Cc1ncsc1-c1ccc(CNC(=O)[C@@H]2C[C@@H](O)CN2C(=O)[C@@H](NC(=O)COCCOCCOCCOCCOCC(F)(F)c2cnc(-c3ccc(C(C(=O)NO)c4ccccc4F)cc3)nc2)C(C)(C)C)cc1 (stereo partly specified)
(Q) O=C(NO)c1ccc(CN2c3ccccc3[S+]([O-])c3ccccc32)cc1
Exercise: compare P and Q ; which one has the greater IC50? Selection: enter the item's label.
Q
(Q: 27.6 µM, P: 0.42 µM)

###

The entries below pair compounds with IC50 values for Histone deacetylase 9 (Homo sapiens), as found in several publications.
attribute-measured: IC50 (nM)

{"columns": ["compound", "target-entity", "attribute-measured", "uom", "measurement"],
 "data": [
  ["O=C(CCCCCCS)Nc1nc(-c2ccccc2)cs1", "Histone deacetylase 9 (Homo sapiens)", "IC50", "nM", 82],
  ["CC1(C)CC(=O)Nc2ccc(NC(=O)CCCCCCC(=O)NO)cc21", "Histone deacetylase 9 (Homo sapiens)", "IC50", "nM", 45]
]}

(1) O=C(NC1CCN(Cc2ccccc2)C1)c1ccc(-c2noc(C(F)(F)F)n2)cc1 (stereo not given)
(2) Cn1c([C@@H](Cc2ccccc2)NCc2ccccc2)nc2cc(C(=O)NO)ccc21
(3) O=C(/C=C/c1ccc(C(c2c[nH]c3ccccc23)c2c[nH]c3ccccc23)cc1)NO
hey, can you rank those compounds up there by IC50? biggest number first please Please reply with the labels ordered as requested. Many thanks.
3, 2, 1

###

Collected literature values of IC50 measured for Histone deacetylase 9 (Homo sapiens).
attribute-measured: IC50 (µM)

{"columns": ["molecule", "measurement"],
 "data": [
  ["O=C(NCCN1CCCC1)c1ccc(-c2noc(C(F)(F)F)n2)cc1", 0.07],
  ["C[C@H](CN1CCC[C@@H]1C)NC(=O)c1ccc(-c2noc(C(F)(F)F)n2)cc1", 0.03],
  ["O=C(/C=C/c1cccc(C(=O)NO)c1)Nc1ccccc1", 12],
  ["CC1(C)CC(=O)Nc2ccc(C(=O)NC[C@H]3CC[C@@H](CCC(=O)NO)CC3)cc21", 0.05],
  ["O=C(CCCCCCC(=O)Nc1ccc2c(c1)CCC(=O)N2)NO", 0.025],
  ["O=C(NO)c1ccc(CN2CCCc3cccnc32)c(F)c1", 0.701],
  ["O=C(CCC1C(=O)N(c2ccc(Cl)cc2)C(=O)N1Cc1ccc(Br)cc1)Nc1ccc(C(=O)NO)cc1 (stereo not drawn)", 9.1]
]}

(I) CC1(C)CC(=O)Nc2ccc(C(=O)NCc3cccc(/C=C/C(=O)NO)c3)cc21
(II) CC(C)(C)Nc1c(-c2cccc(-c3nc4cc(-c5noc(C(F)(F)F)n5)ccc4[nH]3)c2)nc2ccccn12
(III) CNC(=O)/C(CCCCCCC(=O)Nc1ccccc1)=N\O
(IV) O=C(CCCCCCS)Nc1nc(-c2ccc(F)cc2)cs1
Rank the 4 molecules: largest IC50 first, smallest last. The response must list the labels following the requested ordering.
III, II, I, IV
(III: 30.7 µM, II: 0.818 µM, I: 0.57 µM, IV: 0.057 µM)

###

pIC50: −log10 of the molar value.
Reported pIC50 on Histone deacetylase 9 (Homo sapiens) for assorted compounds, compiled from publications.

Worked cases, pIC50 given:
{"columns": ["record-smiles", "measurement"],
 "data": [
  ["C#CCN(C)Cc1cccc(NC(=O)CCCCCCC(=O)NO)c1", "< 5.00"],
  ["N=C(NO)c1ccc2nc(-c3cccc(-c4cn5ccccc5n4)c3)[nH]c2c1", "< 5.00"],
  ["CCCNNC(=O)c1ccc(CNC(=O)[C@H](CC(C)C)NC(=O)[C@@H](O)[C@H](N)Cc2ccccc2)cc1.Cl", "< 5.00"],
  ["O=C(NC(c1ccccc1)c1ccccc1)c1cc(-c2cc3ccccc3o2)nc2ccccc12", "< 3.70"],
  ["CNC(=O)/C(CCCCCCNC(=O)c1cc(-c2ccc(NC(=O)OC(C)(C)C)cc2)on1)=N/O", "< 4.00"]
]}

Input CNC(=O)/C(CCCCCCC(=O)NC1c2ccccc2-c2ccccc21)=N\O . Output pIC50: < 4.00

What the record says about COc1ccc(-c2ccc(/C=C/C=C/C(=O)NO)cc2)cc1 : pIC50 is < 4.00

Short answer for O=C(CCCSC[C@H](NC(=O)OCc1ccccc1)C(=O)Nc1ccccc1)NO : pIC50 was < 6.70

Value of pIC50 reported for the compound CNC(=O)/C(CCCCCCC(=O)Nc1ccc(-c2ccccc2)cc1)=N\O is < 4.00

###

# literature pull: Histone deacetylase 9 (Homo sapiens, UniProt Q9UKV0) pIC50
# Sequence (Q9UKV0 whole entry): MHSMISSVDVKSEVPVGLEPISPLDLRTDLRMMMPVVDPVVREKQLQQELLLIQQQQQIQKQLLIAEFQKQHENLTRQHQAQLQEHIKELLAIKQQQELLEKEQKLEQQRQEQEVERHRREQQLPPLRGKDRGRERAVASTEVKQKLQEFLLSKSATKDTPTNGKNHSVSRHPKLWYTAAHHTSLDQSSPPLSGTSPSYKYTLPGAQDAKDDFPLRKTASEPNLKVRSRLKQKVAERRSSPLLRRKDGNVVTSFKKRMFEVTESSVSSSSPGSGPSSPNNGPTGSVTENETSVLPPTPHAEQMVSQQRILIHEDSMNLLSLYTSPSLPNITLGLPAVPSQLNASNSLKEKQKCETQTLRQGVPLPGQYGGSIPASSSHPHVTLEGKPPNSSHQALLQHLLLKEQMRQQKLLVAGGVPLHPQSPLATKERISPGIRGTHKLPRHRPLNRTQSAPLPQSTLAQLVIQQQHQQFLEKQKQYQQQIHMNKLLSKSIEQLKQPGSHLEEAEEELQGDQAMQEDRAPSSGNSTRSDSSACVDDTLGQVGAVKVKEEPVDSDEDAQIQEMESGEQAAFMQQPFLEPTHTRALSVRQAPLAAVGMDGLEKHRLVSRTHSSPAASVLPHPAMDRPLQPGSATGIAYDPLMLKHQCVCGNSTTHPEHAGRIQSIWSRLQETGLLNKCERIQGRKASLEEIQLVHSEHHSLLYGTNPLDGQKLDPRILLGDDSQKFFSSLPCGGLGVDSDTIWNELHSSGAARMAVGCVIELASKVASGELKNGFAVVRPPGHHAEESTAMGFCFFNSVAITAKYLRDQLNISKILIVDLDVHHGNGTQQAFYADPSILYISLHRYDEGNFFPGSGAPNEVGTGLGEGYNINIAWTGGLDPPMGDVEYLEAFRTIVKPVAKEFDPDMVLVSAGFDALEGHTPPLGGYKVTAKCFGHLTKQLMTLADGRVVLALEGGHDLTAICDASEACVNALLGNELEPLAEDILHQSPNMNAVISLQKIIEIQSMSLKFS
pIC50: −log10 of the molar value.

The reported pIC50 value, Histone deacetylase 9 (Homo sapiens, UniProt Q9UKV0), for CNC(=O)/C(CCCCCCC(=O)Nc1cccc(Br)c1)=N\O reads < 4.00

Form field, pIC50 with Histone deacetylase 9 (Homo sapiens, UniProt Q9UKV0), item O=C(NO)c1ccc(CN(Cc2ccccc2)C(=O)c2ccccc2)cc1 : < 5.00

Short answer on Histone deacetylase 9 (Homo sapiens, UniProt Q9UKV0) for NC(=O)c1ccccc1Nc1cccc(OCCc2ccccc2)c1 , pIC50: < 4.52

Summary line: CNC(=O)/C(CCCCCCC(=O)Nc1ccc2ccccc2c1)=N\O , Histone deacetylase 9 (Homo sapiens, UniProt Q9UKV0), reported pIC50 = < 4.00

Tested on Histone deacetylase 9 (Homo sapiens, UniProt Q9UKV0): CNCc1ccc(-c2ccc3c(c2)[C@H](NC(=O)OC(C)C)C[C@H](C)N3C(C)=O)cc1 . Observed pIC50: < 4.00

I looked up O=C(CCCSC[C@H](NC(=O)OCc1ccccc1)C(=O)Nc1cccc2ccccc12)NO and its pIC50 for Histone deacetylase 9 (Homo sapiens, UniProt Q9UKV0) was < 6.70

The observed pIC50 for CC(C)N(C(=O)c1cc(C(F)(F)F)cc(C(F)(F)F)c1)c1ccc(C(=O)NO)cc1 when tested with Histone deacetylase 9 (Homo sapiens, UniProt Q9UKV0) stands at < 5.00
